- experimental.protocol: folding stability dG unfold from trypsin proteolysis; higher = more stable
property.label: folding stability dG unfold

Some entries whose results are on file:
Lab note: measured folding stability dG unfold of SMKIVKIEIEKIEIYSDEEFAKKTGIKPEAIYKNGKKKKVIKIPVKITLYDEKKGEKKEFEAEITIVIDVSA [r9_382_TrMRF] was 1.56 kcal/mol

Record SAGGSAGGTSVADELEEEFKAKGYPAEVTVTKLPDDTTLVTVTVTDPKTGKSTTTTVTVSPAEASAGGSAGG [r6_692_JUSTAS] , field folding stability dG unfold: 1.02 kcal/mol

Note to self: folding stability dG unfold recorded for DIDIETHPNGTILIKVPRNLLDEIKDILKENGYNVKITGIDPDWGYIRFPLKPVPPPPPKPSPEDAEEQGDS [r1_78_TrROS] was 1.76 kcal/mol

Briefly, folding stability dG unfold measured for SAMKKGEKVKVTLEIEVNGKKYKIELVYDKENNTYTIKIKNEKTGETKTIEVKAKTKEEALEAAKKLLESAG [r14_65_TrROS_Hall] : 1.96 kcal/mol

Lookup result for SAGGSAKNEYITVNITIIVYNPEDGKIEKIINLPIKVPKNLTKEQVINLAKKLLEEKGYEIAEIKGSAGGSA [r15_195_TrMRF] ; measured folding stability dG unfold: 2.22 kcal/mol

Okay, here is my list. What is folding stability dG unfold for each of these?
1. SAGGSAGGSAKKKVEIKIEIEEVTNKDGKKYIKIKIEVKVSEEVKKELADALKKAGFKVEPSAGGSAGGSAG [r3_157_TrROS_Hall]
2. SAGGSAGGSAGTIVTPTATYRIEKLPDKRVRIVVGDKEYEVRVGEPFYLPGGVPFEVLDESAGGSAGGSAGG [r11_147_TrMRF]
3. SAGGSAGGSAGKIWIYNPENGWIFEISIQPHPMPNDDGEPQWMFSIDVEVYPPGKPGQPISAGGSAGGSAGG [r11_531_TrROS]

A)
1. 1.54 kcal/mol
2. 0.35 kcal/mol
3. 2.59 kcal/mol
